The measured values listed here are drawn from a melting point compilation (Tetko et al.; mined from patent text by program, amines drawn as free bases though some values may be those of a salt).

Listed next: entries and their corresponding melting point.

compound	melting point
N#CN=C(NCCSCc1ncccc1Br)NCCSCc1ncccc1Br	118 to 119 °C
Cc1cnn(C(C)C(=O)N(C)C)c1-c1ccccc1 (stereo not given)	88 to 90 °C
CCN(CC)C(=O)Cc1cc(C(C)C)c(O)cc1C	138 to 139 °C

Any idea what its melting point is? The compound is "CC1(C)N=C(Oc2ccnc(O)c2)c2cc(C#N)ccc2O1"
275 to 278 °C

Record: "Clc1c(OCCN2CCCCC2)ccc2cc3ccc(OCCN4CCCCC4)c(Cl)c3nc12"
173 to 174 °C

* * *

# maps each entry to its melting point

Here's what some known entries look like.
CC1=NN=C(c2cc3ccccc3s2)c2cc3oc(=O)[nH]c3cc2C1 338 to 340 °C
CNC1=NN(C(=O)c2ccccc2C(F)(F)F)C(C)(C)S1 164 to 169 °C
COC(=O)COc1ccc(CCCOS(C)(=O)=O)cc1 49 to 51 °C
CN1CCCN(C(=O)c2ccc3n2Cc2ccccc2N(C(=O)c2ccc(C4CCCCC4)cc2)C3)CC1 133 to 136 °C
OCCCOc1nc(N2CCCCC2)c2nc(OCCCO)nc(N3CCCCC3)c2n1 154 to 156 °C
O=C(O)c1ncc(Cl)nc1Cl 139 to 141 °C

Find the recorded melting point belonging to "NC(=O)c1sc2ncnc(-c3cc(O)c4c(c3)OCC4)c2c1N" and report it.
285 °C

Query "CCOC(=O)c1ccc(NCCc2cccs2)cc1" next
93 to 96 °C

Okay, and "CCOC(=O)CNC(=O)NCCCSc1nccc(NC(N)=NCC(F)(F)F)n1" ?
165 to 166 °C

Entry "CCOC(=O)/C=C/c1ccc(C(C)(C)C)c([N+](=O)[O-])c1" please
77 to 78 °C
